- Test system: SF-539
- experimental.details: NCI tumour cell line growth inhibition, 48 h
Active and inactive are the calls of the source. Rule as the data show it: active = GI50 up to about 1.1 µM and inactive = higher.
GI50 listing for selected compounds.
measurement.type: GI50

| compound | result |
| --- | --- |
| N=C(N)NS(=O)(=O)c1ccc(Nc2c3ccccc3nc3c(C(=O)Nc4ccc(S(N)(=O)=O)cc4)cccc23)cc1 | 52.5 µM (inactive) |
| CC(CNC(=O)c1ccccc1)(CNC(=O)c1ccccc1)[N+](=O)[O-] | > 100 µM (inactive) |
| CN(C)CCC(/C=C/c1ccccc1)=N\Nc1ccc(Cl)cc1 | 2.25 µM (inactive) |
| Brc1ccc(CCNCCN2CCCCC2)cc1 | 10.9 µM (inactive) |
| CC1CC(N)=C(C#N)C1(C#N)C#N (stereo unspecified) | > 100 µM (inactive) |
| Cc1noc2cccc(OCc3ccccc3)c12 | > 100 µM (inactive) |

###

- System: NCI-H23
- experimental.details: NCI tumour cell line growth inhibition, 48 h
The source made the active and inactive calls. Rule as the data show it: active = GI50 up to about 1.1 µM and inactive = higher. Square brackets hold non-standard residues; d marks the D form. Peptide text beside a SMILES is read from it. * marks the point of attachment. Bn2Val = CC(C)[C@@H](C(=O)*)N(Cc1ccccc1)Cc1ccccc1; NH(3,4-diMeO-benzyl) = COc1ccc(CN*)cc1OC; NMeV = CN[C@H](C(=O)O)C(C)C; dNMeA = CN[C@H](C)C(=O)O
Outcome codes: class 1 (active), class 0 (inactive)

| compound | discrete.label |
| --- | --- |
| CCCCNC(=O)N/C=C1\C(=O)Oc2ccccc2C1=O | class 0 |
| COc1ccc(C2CC(c3cc(C)ccc3O)=NC(N)=N2)cc1 (centres undefined) | class 0 |
| Cc1ccc(/C=C2\CCCCCC2=O)cc1 | class 0 |
| O=C(O)C1=C(C(=O)Nc2ccc(NC(=O)C3=C(C(=O)O)C4C=CC3C4)cc2)C2C=CC1C2 | class 0 |
| CC1(O)CC(C(F)(F)F)(C(F)(F)F)OC1=O (centres undefined) | class 0 |
| S=C(N/N=C/c1ccco1)NC12CC3CC(CC(C3)C1)C2 | class 0 |
| O=c1c(C(c2ccco2)c2c(O)oc3ccccc3c2=O)c(O)oc2ccccc12 | class 0 |
| C=CCCC1(CCP(=O)(c2ccccc2)c2ccccc2)OCCO1 | class 0 |
| CC(CNC(=O)c1ccccc1)(CNC(=O)c1ccccc1)[N+](=O)[O-] | class 0 |
| O=C(O)C1CCN(Cc2oc(CO)cc(=O)c2O)C1 (centres undefined) | class 0 |
| COc1cc2c(c(OC)c1OC)C(=O)NCCC2 | class 0 |
| C[C@H](C(=O)N1C(=O)O[C@@H](c2ccccc2)[C@H]1C)[C@H](c1ccccc1)N(Cc1ccccc1)OC(=O)c1ccccc1 | class 0 |
| O=C(c1ccccc1)c1oc2ccc(Br)cc2c1-c1cnn(-c2ccccc2)c1 | class 0 |
| COC(=O)/N=[N+](\[O-])C(c1ccc(OC)cc1)C1CCCCC1 (centres undefined) | class 1 |
| CC1=CCC(=O)[C@]2(C)C(CC(=O)O)[C@]3(C)C4=C(C)C(c5ccoc5)C[C@@H]4O[C@@H]3[C@H](O)[C@@H]12 (some centres undefined) | class 0 |
| O=C1C(c2ccc([N+](=O)[O-])cc2)=[N+]([O-])c2ccccc21 | class 0 |
| CN1N=C(c2ccccc2)c2cc(Cl)ccc2N=C1N/N=C/c1ccc(N(C)C)cc1 | class 0 |
| O=C(CON1C(=O)c2ccccc2C1=O)c1ccccc1 | class 0 |
| O=c1cc(/N=N\c2ccc(Cl)cc2)[nH]c(=O)[nH]1 | class 0 |
| CCOC(=O)N1C=NC23C(c4ccccc4)C(c4ccccc4)C12C(=O)N(C)C(=O)N3C (centres undefined) | class 0 |
| Cc1ccccc1NC(=O)c1cc2cc(/N=N/c3ccccc3C(=O)O)ccc2oc1=O | class 0 |
| O=[N+]([O-])c1ccc(OCc2nnc(CCCCCCCCc3nnc(COc4ccc([N+](=O)[O-])cc4)o3)o2)cc1 | class 0 |
| Cn1c(N/N=C/c2ccccc2)nc(-c2ccc([N+](=O)[O-])cc2)c(C#N)c1=O | class 0 |
| Cc1cccc(CC(Cc2ccc(C)cc2C(=O)O)C(=O)O)c1 (centres undefined) | class 0 |
| N/N=c1\c2ccccc2c2cc3c(cc12)/c(=N/N)c1ccccc13 | class 0 |
| O=c1c(-c2ccc(Cl)cc2)nnc2n(Cc3ccccc3)c3ccccc3n12 | class 0 |
| Cc1[nH]n(-c2nc(O)c(-c3ccccc3)c(=O)[nH]2)c(=O)c1CCO | class 0 |
| COc1nncc2[nH]c(-c3ccccc3)cc12 | class 0 |
| COc1ccc(CNC(=O)[C@@H](C)N(C)C(=O)[C@@H]2CCCN2C(=O)[C@H](C(C)C)N(C)C(=O)[C@@H](NC(=O)[C@H](C(C)C)N(Cc2ccccc2)Cc2ccccc2)C(C)C)cc1OC (Bn2Val-V[NMeV]P[dNMeA]-{NH(3,4-diMeO-benzyl)}) | class 0 |
| O=C1/C(=C\c2cccs2)Oc2ccccc21 | class 0 |
| CCc1cc(O)c(Cl)c(C)c1Cl | class 0 |
| ClCCCCOC1CCCCO1 (centres undefined) | class 0 |
| O=C(CC1(O)C(=O)Nc2c(Cl)cc(Cl)cc21)c1ccc([N+](=O)[O-])cc1 (centres undefined) | class 0 |
| C[C@@H](CO)C1=CC(C#C[Si](C)(C)C)N(C(=O)Oc2ccccc2)c2ccccc21 (some centres undefined) | class 0 |
| CC[C@@H]1/C=C/C=C/C[C@H](C)[C@@H](O)[C@](C)(O)C(=O)[C@H](C)[C@@H](O)[C@H](C)C(=O)[C@H](C)[C@@H](O)[C@H](C)/C=C/C(=O)O[C@H]2[C@@H](C)[C@@H](CC1)O[C@@]1(CC[C@@H](C)[C@@H](CC(C)O)O1)[C@@H]2C (some centres undefined) | class 1 |
| CC(=O)OCC1C(=O)OCC1C(=O)N1Cc2cc3ccccc3nc2C1 (centres undefined) | class 0 |
| COc1cc([C@H]2c3cc4c(cc3[C@H](NCc3ccc([N+](=O)[O-])cc3)C3COC(=O)[C@H]32)OCO4)cc(OC)c1O (some centres undefined) | class 1 |
| OCC1NC(CO)C(O)C1O (centres undefined) | class 0 |
| Cc1ccc([S+]([O-])C(C)C(Cl)c2ccccc2)cc1 (centres undefined) | class 0 |

Where these numbers come from: ChEMBL document CHEMBL1201862
